# System: PC-3 androgen-nonresponsive prostate cancer cells
# Test summary: MTT cell viability assay, PC-3 cells
# Assay type: cell-based
# Recorded conditions: Homo sapiens, 72 h, 5% FBS, read-out: IC50 for suppressing cell viability
# Procedure: Cell Counting and Cell Viability Assay. LNCaP or PC-3 cells were placed in six-well plates (2.5×10^5 cells/well) in 10% FBS-supplemented RPMI 1640 for 24 h, and treated with various concentrations of compound 12 for additional 24, 48 and 72 h. Cells were then trypsinized and counted by using a Coulter counter (Model Z1 D/T, Beckman Coulter, Fullerton, Calif.). […] Absorbance was determined at 570 nm by a 96-well plate reader.
Endpoint name: IC50
A complete answer gives the number followed by the unit.

Which IC50 reading was recorded for the molecule CC1(CN2C(=O)S/C(=C\c3ccc(O)c(C(F)(F)F)c3)C2=O)CCCCC1 [Compound 12] ?
12 µM
